level at time molar reference
# assayInfo: Intestinal tract absorptivity (intragastric administration, portal vein perfusate, LC/MS/MS)
# Format: in vivo, Wistar rats
# testParameters: male, Wistar, rat, in vivo, po, 215 nmol/10 mL
Square brackets hold non-standard residues; d marks the D form. Peptide text beside a SMILES is read from it. Hyp = O=C(O)[C@@H]1C[C@@H](O)CN1
propertyMeasured: level at time molar (µM)

{"compound": "CC[C@H](C)[C@H](N)C(=O)N1C[C@H](O)C[C@H]1C(=O)O [IO, Ile-Hyp] (H-Ile-[Hyp]-OH; N-terminus and C-terminus assumed)", "measureUnit": "µM", "measured": 163}
{"compound": "C[C@H](NC(=O)[C@@H]1CCCN1)C(=O)O [PA, Pro-Ala] (H-Pro-Ala-OH; N-terminus and C-terminus assumed)", "measureUnit": "µM", "measured": 153}
{"compound": "CC(C)C[C@H](N)C(=O)N1C[C@H](O)C[C@H]1C(=O)O [LO, Leu-Hyp] (H-Leu-[Hyp]-OH; N-terminus and C-terminus assumed)", "measureUnit": "µM", "measured": 168}
{"compound": "C[C@H](N)C(=O)N1C[C@H](O)C[C@H]1C(=O)O [AO, Ala-Hyp] (H-Ala-[Hyp]-OH; N-terminus and C-terminus assumed)", "measureUnit": "µM", "measured": 71}
{"compound": "N[C@@H](CO)C(=O)N1C[C@H](O)C[C@H]1C(=O)O [SO, Ser-Hyp] (H-Ser-[Hyp]-OH; N-terminus and C-terminus assumed)", "measureUnit": "µM", "measured": 116}
{"compound": "N[C@@H](CCC(=O)O)C(=O)N1C[C@H](O)C[C@H]1C(=O)NCC(=O)O [EOG, Glu-Hyp-Gly] (H-Glu-[Hyp]-Gly-OH; N-terminus and C-terminus assumed)", "measureUnit": "µM", "measured": 110}
{"compound": "N[C@@H](CO)C(=O)N1C[C@H](O)C[C@H]1C(=O)NCC(=O)O [SOG, Ser-Hyp-Gly] (H-Ser-[Hyp]-Gly-OH; N-terminus and C-terminus assumed)", "measureUnit": "µM", "measured": 103}
{"compound": "N[C@@H](CCC(=O)O)C(=O)N1C[C@H](O)C[C@H]1C(=O)O [EO, Glu-Hyp] (H-Glu-[Hyp]-OH; N-terminus and C-terminus assumed)", "measureUnit": "µM", "measured": 156}
{"compound": "C[C@H](NC(=O)[C@@H]1CCCN1)C(=O)NCC(=O)O [PAG, reference compound] (H-Pro-Ala-Gly-OH; N-terminus and C-terminus assumed)", "measureUnit": "µM", "measured": 105}
